Data origin, for the record: the Human Domainome abundance scans (Beltran et al. 2025)

B1: Membrane-associated guanylate kinase, WW and PDZ domain-containing protein 2, residues 601 to 682; numbered along this chain, Q86UL8 (parent)
chain: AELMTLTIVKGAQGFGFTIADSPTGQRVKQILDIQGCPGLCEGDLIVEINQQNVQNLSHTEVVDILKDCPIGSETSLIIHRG

# Variants of: B1
# Assay details: abundance fitness (aPCA) (normalised: wild type 0, dead -1); higher = more abundant; growth selection in yeast, the domain comes from the species named
# Experimental setup: Homo sapiens
Recorded metric: abundance fitness
Could you respond with only the numeric value?

I71L
-0.099
I65M
-0.051
S73Q
-0.098

Next:
Would you kindly share the measured abundance fitness for `Q30V` ?
-0.102
